Origin of the recorded values: patent US12037324B2

Biological target: hAT1R (Homo sapiens)
Sequence (P30556 1-359): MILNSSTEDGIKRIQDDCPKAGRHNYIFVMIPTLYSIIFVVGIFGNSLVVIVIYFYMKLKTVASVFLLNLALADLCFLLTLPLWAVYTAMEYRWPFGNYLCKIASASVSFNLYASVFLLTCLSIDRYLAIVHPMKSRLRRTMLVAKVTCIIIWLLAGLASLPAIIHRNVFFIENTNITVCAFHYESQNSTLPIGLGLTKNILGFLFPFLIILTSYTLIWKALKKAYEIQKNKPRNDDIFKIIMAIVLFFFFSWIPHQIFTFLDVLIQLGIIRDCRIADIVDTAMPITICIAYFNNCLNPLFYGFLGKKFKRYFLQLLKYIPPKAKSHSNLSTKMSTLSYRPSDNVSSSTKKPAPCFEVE
Assay: cell-based
Settings: agonist mode
Class assignment keyed on BRET P63 Ymax, ranges lo: < 10%; med: ≥ 10% and < 20%; hi: ≥ 20%

- compound-structure: "CCOc1nc2cccc(C(=O)O)c2n1Cc1ccc(-c2cc(-c3cc(C)ccn3)ccc2-c2noc(=O)[nH]2)cc1"
  assigned-label: "hi"
- compound-structure: "COc1ccnc(-c2ccc(-c3nn[nH]n3)c(-c3ccc(CN4C(=O)C5(CCCC5)N=C4C4CC4)cc3)c2)c1"
  assigned-label: "hi"
- compound-structure: "CCc1nc2c(C)cc(C)nc2n1Cc1ncc(-c2cc(-c3ccccc3)ccc2-c2nnn[nH]2)cn1"
  assigned-label: "med"
- compound-structure: "CCc1nc2c(C)cc(C)nc2n1Cc1ccc(-c2cc(-c3cn(CC(F)F)nn3)ccc2-c2nnn[nH]2)cc1"
  assigned-label: "hi"
- compound-structure: "CCc1nc2c(C)cc(C)nc2n1Cc1ccc(-c2cc(-c3cccc(C)c3)ccc2-c2nnn[nH]2)nn1"
  assigned-label: "hi"
- compound-structure: "CCc1nc2c(C)cc(C)nc2n1Cc1ccc(-c2cc(-c3ccccc3)ccc2-c2nn[nH]n2)c(F)c1"
  assigned-label: "med"
- compound-structure: "CCc1nc2c(C)cc(C)nc2n1Cc1ccc(-c2cc(Oc3ncccc3Cl)ccc2-c2nn[nH]n2)cc1"
  assigned-label: "lo"
- compound-structure: "CCc1nc2c(C)cc(C)nc2n1Cc1ccc(-c2cc(Oc3cccnc3F)ccc2-c2nn[nH]n2)cc1"
  assigned-label: "med"
- compound-structure: "CCc1nc2c(C)cc(C)nc2n1Cc1ccc(-c2cc(-c3ccccc3)ccc2-c2nn[nH]n2)cc1F"
  assigned-label: "med"
- compound-structure: "CCc1nc2c(C)cc(C)nc2n1Cc1ccc(-c2cc(-c3ccc(CO)cc3)ccc2-c2nnn[nH]2)cn1"
  assigned-label: "med"
- compound-structure: "CCCc1cn(-c2ccc(-c3nnn[nH]3)c(-c3ccc(Cn4c(CC)nc5c(C)cc(C)nc54)cc3)c2)nn1"
  assigned-label: "med"
- compound-structure: "CCC1=NC2(CCCC2)C(=O)N1Cc1ccc(-c2cc(-c3cc(C)ccn3)ccc2-c2nn[nH]n2)cc1"
  assigned-label: "hi"
- compound-structure: "CCc1nc2c(C)cc(C)nc2n1Cc1ccc(-c2cc(-c3ccccc3)ccc2-c2nsc(=O)[nH]2)cc1"
  assigned-label: "hi"
- compound-structure: "CCc1nc2c(C)cc(C)nc2n1Cc1ccc(-c2cc(Oc3cc(C)ccn3)ccc2-c2nn[nH]n2)cc1"
  assigned-label: "med"
- compound-structure: "CCc1nc2c(C)cc(C)nc2n1Cc1ccc(-c2cc(-c3cn(C)nn3)ccc2-c2nnn[nH]2)cc1"
  assigned-label: "med"
- compound-structure: "CCc1nc2c(C)cc(C)nc2n1Cc1ccc(-c2cc(-n3cc(C(F)(F)F)cn3)ccc2-c2nnn[nH]2)cc1"
  assigned-label: "hi"
- compound-structure: "CCc1nc2c(C)cc(C)nc2n1Cc1ccc(-c2cc(-c3cccc(C)c3)ccc2C(=O)O)cn1"
  assigned-label: "med"
- compound-structure: "CCc1nc2c(C)cc(C)nc2n1Cc1ccc(-c2cc(N3CCCC(F)(F)C3)ccc2-c2nn[nH]n2)cc1"
  assigned-label: "lo"
- compound-structure: "CCc1nc2c(C)cc(C)nc2n1Cc1ccc(-c2cc(Oc3ccccc3)ccc2-c2nnn[nH]2)cc1"
  assigned-label: "lo"
